Molecular target: c-Met (Homo sapiens)
Sequence (P08581 25-1390): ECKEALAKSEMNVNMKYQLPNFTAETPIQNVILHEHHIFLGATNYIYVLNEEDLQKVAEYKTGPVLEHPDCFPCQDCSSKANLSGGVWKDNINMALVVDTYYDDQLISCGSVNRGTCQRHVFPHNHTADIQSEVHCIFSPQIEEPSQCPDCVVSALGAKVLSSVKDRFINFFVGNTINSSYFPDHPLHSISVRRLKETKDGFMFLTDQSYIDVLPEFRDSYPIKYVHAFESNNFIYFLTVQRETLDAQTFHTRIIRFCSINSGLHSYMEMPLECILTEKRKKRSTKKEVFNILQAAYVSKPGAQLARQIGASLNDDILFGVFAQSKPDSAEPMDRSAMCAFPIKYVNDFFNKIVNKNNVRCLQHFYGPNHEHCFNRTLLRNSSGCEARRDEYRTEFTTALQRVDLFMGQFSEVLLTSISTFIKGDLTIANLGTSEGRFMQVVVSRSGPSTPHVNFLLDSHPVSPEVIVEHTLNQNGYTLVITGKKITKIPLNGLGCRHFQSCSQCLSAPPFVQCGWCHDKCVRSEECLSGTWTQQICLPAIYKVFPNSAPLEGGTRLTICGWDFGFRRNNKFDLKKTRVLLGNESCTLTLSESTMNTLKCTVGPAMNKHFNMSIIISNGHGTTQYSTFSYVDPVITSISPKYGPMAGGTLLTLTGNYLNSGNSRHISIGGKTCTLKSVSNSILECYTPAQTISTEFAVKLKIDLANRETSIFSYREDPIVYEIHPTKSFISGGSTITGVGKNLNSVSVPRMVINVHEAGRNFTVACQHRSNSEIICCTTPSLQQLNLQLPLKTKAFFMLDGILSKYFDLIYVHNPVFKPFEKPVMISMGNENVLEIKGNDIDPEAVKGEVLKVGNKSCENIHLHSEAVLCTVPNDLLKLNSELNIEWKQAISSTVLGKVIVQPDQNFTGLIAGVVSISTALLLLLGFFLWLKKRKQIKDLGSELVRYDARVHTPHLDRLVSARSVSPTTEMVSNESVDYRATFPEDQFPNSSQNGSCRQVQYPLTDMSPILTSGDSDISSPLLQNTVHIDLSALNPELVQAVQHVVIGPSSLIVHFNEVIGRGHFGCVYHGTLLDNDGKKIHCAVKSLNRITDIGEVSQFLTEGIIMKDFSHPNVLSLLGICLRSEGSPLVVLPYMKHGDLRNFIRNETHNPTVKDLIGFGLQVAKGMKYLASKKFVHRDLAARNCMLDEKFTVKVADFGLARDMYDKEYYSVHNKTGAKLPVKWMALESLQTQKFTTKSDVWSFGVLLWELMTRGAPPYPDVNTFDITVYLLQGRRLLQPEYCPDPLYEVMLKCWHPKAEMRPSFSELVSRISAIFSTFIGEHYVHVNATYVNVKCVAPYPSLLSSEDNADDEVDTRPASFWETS
Experiment: Ki determination for the inhibition of c-Met kinase activity (standard coupled enzyme system)
Format: biochemical
Details: coupled enzyme system, 200 μM ATP, 10 μM polyGluTyr, 80 nM c-Met, 30° C.; read-out: c-Met Ki
pKi: −log10 of the molar value.
Readings of pKi for the listed compounds

>  <COMPOUND>
Oc1ccc(Cc2nnc3sc(Nc4cccc(Cl)c4F)nn23)cc1F [Compound 130]

>  <pKi>
5.70 to 7.00

$$$$
>  <COMPOUND>
Oc1ccc(Cc2nnc3sc(Nc4cc(F)cc(F)c4)nn23)cc1Cl [Compound 104]

>  <pKi>
> 7.00

$$$$
>  <COMPOUND>
Cc1ccc(Nc2nn3c(Cc4ccc(O)cc4)nnc3s2)cc1Cl [Compound 73]

>  <pKi>
5.70 to 7.00

$$$$
>  <COMPOUND>
CN(C)c1ccc(Nc2nn3c(Cc4ccc(O)cc4)nnc3s2)cc1 [Compound 74]

>  <pKi>
5.70 to 7.00

$$$$
>  <COMPOUND>
COc1ccccc1Nc1nn2c(Cc3ccc(O)cc3)nnc2s1 [Compound 29]

>  <pKi>
5.70 to 7.00

$$$$

I have this compound here, CCCC(C)Nc1ccc2nnc(Cc3ccc(O)cc3)n2n1 (stereo not drawn) [Compound 280] , and I need its recorded pKi.
5.70 to 7.00

Query (compound): Oc1ccc(CCc2nnc3sc(Nc4cccc(Cl)c4)nn23)cc1 [Compound 94] ; field requested: pKi
< 5.70

Look up pKi: O=C(Nc1ccc(F)cc1)Nc1nn2c(Cc3ccc(O)cc3)nnc2s1 [Compound 114]
< 5.70

Which pKi is reported for this compound? Oc1ccc(Cc2nnc3sc(Nc4ccc5nsnc5c4)nn23)cc1 [Compound 70]
< 5.70

* * *

Target: c-Met (Homo sapiens)
Test: Ki determination for the inhibition of c-Met kinase activity (standard coupled enzyme system)
Format: biochemical
Details: coupled enzyme system, 200 μM ATP, 10 μM polyGluTyr, 80 nM c-Met, 30° C.; read-out: c-Met Ki
METRIC: Ki

>  <COMPOUND>
CNC(=O)c1cccc(Nc2ccc3nnc(Cc4ccc(O)c(F)c4)n3n2)c1

>  <Ki>
100 to 2000 nM

$$$$

Kindly review the next compound as well.
What measured Ki goes with CC(c1ccc(O)cc1)c1nnc2sc(C(N)=O)nn12 (centres unmarked) ?
> 2000 nM

* * *

Target: c-Met (Homo sapiens)
Test: Ki determination for the inhibition of c-Met kinase activity (standard coupled enzyme system)
Format: biochemical
Conditions: coupled enzyme system, 200 μM ATP, 80 nM c-Met, 30° C.; read-out: c-Met Ki
METRIC: Ki

>  <SMILES DATA>
CC(C)(C)Nc1ccc2nnc(Cc3ccc(O)cc3)n2n1

>  <REPORTED VALUE>
0.1 to 2 µM

$$$$

Now let's try a different one.
Suppose we examine the molecule "Oc1ccc(Cc2nnc3n2N=C(c2cccs2)CS3)cc1" ; what Ki value has been reported?
< 0.1 µM

* * *

Target: c-Met (Homo sapiens)
Test: Ki determination for the inhibition of c-Met kinase activity (standard coupled enzyme system)
Format: biochemical
Conditions: coupled enzyme system, 200 μM ATP, 10 μM polyGluTyr, 80 nM c-Met, 30° C.; read-out: c-Met Ki
METRIC: Ki

Example compounds with recorded Ki:
>  <COMPOUND>
CC(=O)Nc1ccc(NCc2nnc3ccc(-c4ccccc4)nn23)cc1

>  <ASSAYED SYSTEM>
c-Met (Homo sapiens)

>  <REPORTED VALUE>
> 2000 nM

$$$$
>  <COMPOUND>
Clc1cccc(Nc2ccc3nnc(Cc4ccc5c(c4)OCO5)n3n2)c1

>  <ASSAYED SYSTEM>
c-Met (Homo sapiens)

>  <REPORTED VALUE>
< 100 nM

$$$$
>  <COMPOUND>
Oc1ccc(Cc2nnc3sc(Nc4ccc(-n5cccn5)cc4)nn23)cc1

>  <ASSAYED SYSTEM>
c-Met (Homo sapiens)

>  <REPORTED VALUE>
< 100 nM

$$$$
>  <COMPOUND>
CC(c1ccc(O)cc1)c1nnc2sc(Nc3cccc(Cl)c3)nn12 (stereo not shown)

>  <ASSAYED SYSTEM>
c-Met (Homo sapiens)

>  <REPORTED VALUE>
< 100 nM

$$$$
>  <COMPOUND>
Oc1ccc(Cc2nnc3sc(Nc4cccnc4)nn23)cc1

>  <ASSAYED SYSTEM>
c-Met (Homo sapiens)

>  <REPORTED VALUE>
< 100 nM

$$$$

# lookup: Ki of "Oc1cccc(Cc2nnc3sc(Nc4cccc(F)c4F)nn23)c1"
100 to 2000 nM

What Ki value was documented for this compound, "COc1cc(Cc2nnc3sc(Nc4ccccc4OC)nn23)ccc1O" ?
> 2000 nM

For "Oc1cccc2c1ccn2Cc1nnc2sc(Nc3cccc(C(F)(F)F)c3)nn12" , what is its reported Ki?
< 100 nM

Find the recorded Ki belonging to CC(C)C(CO)Nc1ccc2nnc(Cc3ccc(O)cc3)n2n1 (stereo not shown) and report it.
100 to 2000 nM
